tested on: LN229 cells; assay: Amino acid starvation assay: antiproliferation assay with LN229 cells (CellTiter-Glo); format: cell-based; conditions: Homo sapiens, LN-229, 144 h, F12K medium, six days, Table 1, read-out: Anti-proliferation LC50 (μM ± SE)
Binarize CC50 at 40 µM; below is 1, at or above is -1.

Is it true that CC50 reported for Cc1ccc(S(=O)(=O)NCc2ccccc2)cc1C[C@H](N)C(=O)O is less than 40 µM?
1

Consider the compound CC(C)c1ccc(NS(=O)(=O)c2cccc3c(N(C)C)cccc23)cc1C[C@H](N)C(=O)O . Is its CC50 strictly less than 40 µM?
-1

Is it true that CC50 reported for CC(C)c1ccc(S(=O)(=O)Nc2ccc(Cl)cc2)cc1C[C@H](N)C(=O)O is less than 40 µM?
1

CC50 under 40 µM? Item: COc1ccc(NS(=O)(=O)c2ccc(C)c(C[C@H](N)C(=O)O)c2)cc1
1

Determine if Cc1ccc(S(=O)(=O)Nc2cccc3ccccc23)cc1C[C@H](N)C(=O)O shows CC50 strictly lower than 40 µM.
1

Given Cc1ccc(S(=O)(=O)Nc2cccc3c(N(C)C)cccc23)cc1C[C@H](N)C(=O)O , is recorded CC50 strictly lower than 40 µM?
-1

Does the reported CC50 of CCCCNS(=O)(=O)c1ccc(C)c(C[C@H](N)C(=O)O)c1 stay below 40 µM?
1

Criterion: CC50 strictly below 40 µM. Is it met by Cc1ccc(NS(=O)(=O)c2ccccc2)cc1C[C@H](N)C(=O)O ?
-1
